# Protocol: Pharmacokinetic evaluation in mice
# Type: in vivo, female Balb/c mice
# Experimental conditions: female, Balb/c, mouse, plasma, IV 2 mg/kg
Quantity name: AUC(0-t) (µM·h)
Kindly answer with a numeric value in µM·h, unit omitted.

Identify measured AUC(0-t) corresponding to O=C1NCc2c(-c3cnc4cc(F)ccn34)ccc(Nc3ccc4c(n3)OC[C@H]3COCCN43)c21 [Trifluoroacetate of compound 9]
1.93

---

# Protocol: Pharmacokinetic evaluation in mice
# Assay type: in vivo, female Balb/c mice
# Experimental conditions: female, Balb/c, mouse, plasma, IV 2 mg/kg
Quantity name: C0

Please report the measured C0 for O=C1NCc2c(-c3cnc4cc(F)ccn34)ccc(Nc3ccc4c(n3)OC[C@H]3COCCN43)c21 [Trifluoroacetate of compound 9]
6.06 µM
